EXPERIMENT_DESCRIPTION: qHTS of pediatric cancer cell lines to identify multiple opportunities for drug repurposing: Confirmatory screen for Rh30 cells (AID 1347126); note: nearly all actives have a fitted effect of over 55% in size
ASSAY_SETUP: Rh30 rhabdomyosarcoma cell viability; series mostly up to 45.9 µM
Experimental: Drug repurposing or repositioning has been offered as a strategy for drug development in oncology programs. […] [1] Shen, M et al. Quantitative high-throughput phenotypic screening of pediatric cancer cell lines identifies multiple opportunities for drug repurposing. […] Cells were assayed in growth media at a density of 500-1,000 cells/well. […] After a 15 min incubation at room temperature, samples were analyzed for luminescence intensity using a ViewLux High-throughput CCD imager equipped with clear filters.
Records with an inconclusive call do not appear. Active and inactive are the calls of the source. Calls come from the whole dose curve; as a rule, active = well fitted cell-killing curve with a large enough effect; inconclusive = small, poorly fitted or top-dose-only effect, or effect the other way; inactive = no such curve, though single readings can be large or run the other way.
Result category, one only: label 1 (active), label 0 (inactive)

Worked cases, answers included:
- COMPOUND: "C[C@H]1O[C@@H](O[C@H]2[C@@H](O)C[C@H](O[C@H]3[C@@H](O)C[C@H](O[C@H]4CC[C@@]5(C)[C@H](CC[C@@H]6[C@@H]5CC[C@]5(C)[C@@H](C7=CC(=O)OC7)CC[C@]65O)C4)O[C@@H]3C)O[C@@H]2C)C[C@H](O)[C@@H]1O"
  CATEGORY: "label 1"
- COMPOUND: "C=C(C)[C@H]1Cc2c(ccc3c2O[C@@H]2COc4cc(OC)c(OC)cc4[C@@H]2C3=O)O1"
  CATEGORY: "label 0"
- COMPOUND: "C[C@@H]1[C@@H](CC(C[C@H]2O[C@@H]3O[C@]4(C)CC[C@@H]5[C@H](C)CC[C@@H]([C@H]2C)[C@@]35OO4)C[S+](=O)([O-])c2ccc(COC(=O)N(C)C)cc2)O[C@@H]2O[C@]3(C)CC[C@H]4[C@H](C)CC[C@@H]1[C@@]24OO3 (stereo partly specified)"
  CATEGORY: "label 1"
- COMPOUND: "C[C@@H]1[C@@H](C(=O)C[C@H]2O[C@@H]3O[C@]4(C)CC[C@@H]5[C@H](C)CC[C@@H]([C@H]2C)[C@@]35OO4)O[C@@H]2O[C@]3(C)CC[C@H]4[C@H](C)CC[C@@H]1[C@@]24OO3"
  CATEGORY: "label 1"
- COMPOUND: "O=c1[nH]c2ccccc2n1CCCN1CCC(n2c(=O)[nH]c3cc(Cl)ccc32)CC1"
  CATEGORY: "label 1"

Moving on to the next compound.
What outcome does the record of this test show for `C[C@@H]1O[C@@H](O[C@H]2C[C@@H](O)[C@]3(CO)[C@H]4[C@H](O)C[C@]5(C)[C@@H](C6=CC(=O)OC6)CC[C@]5(O)[C@@H]4CC[C@]3(O)C2)[C@H](O)[C@H](O)[C@H]1O` ? label 1

====

System: PC49
EXPERIMENT_DESCRIPTION: qHTS profiling for inhibitors of Plasmodium falciparum proliferation (AID 504749);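 note: 0% = DMSO vehicle and full inhibition = artemisinin control; nearly all actives have a fitted effect of over 60% in size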
ASSAY_SETUP: P. falciparum in erythrocytes, SYBR Green DNA, 72 h; series mostly up to 28.7 µM
Records with an inconclusive call do not appear. Active and inactive are the calls of the source. Calls come from the whole dose curve; as a rule, active = well fitted inhibition curve with a large enough effect; inconclusive = small, poorly fitted or top-dose-only effect; inactive = flat fitted curve, though single readings scatter.
Result category, one only: True for active, False for inactive

- MOLECULE: "COc1ccccc1N1CCNCC1"
  CATEGORY: "False"

What outcome does the record of this test show for `Clc1cccc(N2CCNCC2)c1` ? False

What outcome does the record of this test show for `Oc1ccccc1-c1ccccc1` ? False

What outcome does the record of this test show for `Nc1ccncc1` ? False

What outcome does the record of this test show for `O=C(O)c1ccc2[nH]cc(CCCCN3CC=C(c4ccccc4)CC3)c2c1` ? False

What outcome does the record of this test show for `Cc1ccc(-c2nc3ccc(C)cn3c2CC(=O)N(C)C)cc1` ? False
